subject-of-test: Rap guanine nucleotide exchange factor 3 (Homo sapiens)
test-summary: Counterscreen qHTS for antagonist of cAMP-regulated guanine nucleotide exchange factor 3 (EPAC1) (AID 1645888);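 note: fluorescence loss as bound BODIPY-GDP is released from Rap1B; % of control where 0% means no effect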
settings: Rap1B-BODIPY-GDP nucleotide exchange, fluorescence; series mostly up to 154 µM
Results filed as inconclusive are left out. Activity calls are given as the source filed them. Calls come from the whole dose curve; as a rule, active = well fitted inhibition curve with a large enough effect; inconclusive = small, poorly fitted or top-dose-only effect; inactive = no such curve, though single readings can be large or run the other way.

# compound, activity change, negative = inhibition
rows = [
    ("O=C(/C=C/c1ccc(O)c(O)c1)O[C@@H]1C[C@](O)(C(=O)O)C[C@@H](O)[C@H]1O", "-13.1% [at 30.8 µM] (inactive)"),
    ("CCc1ccc2occ(CC(=O)Nc3ccc(C)c(C)c3)c2c1", "inactive"),
    ("Cc1ccc(C(NC(=O)C2CCN(Cc3ccc(Cl)c(Cl)c3)CC2)c2ccccn2)cc1 (stereo not drawn)", "inactive"),
]

====

subject-of-test: Rap guanine nucleotide exchange factor 3 (Homo sapiens) (UniProt O95398)
Sequence (O95398 whole entry, looked up): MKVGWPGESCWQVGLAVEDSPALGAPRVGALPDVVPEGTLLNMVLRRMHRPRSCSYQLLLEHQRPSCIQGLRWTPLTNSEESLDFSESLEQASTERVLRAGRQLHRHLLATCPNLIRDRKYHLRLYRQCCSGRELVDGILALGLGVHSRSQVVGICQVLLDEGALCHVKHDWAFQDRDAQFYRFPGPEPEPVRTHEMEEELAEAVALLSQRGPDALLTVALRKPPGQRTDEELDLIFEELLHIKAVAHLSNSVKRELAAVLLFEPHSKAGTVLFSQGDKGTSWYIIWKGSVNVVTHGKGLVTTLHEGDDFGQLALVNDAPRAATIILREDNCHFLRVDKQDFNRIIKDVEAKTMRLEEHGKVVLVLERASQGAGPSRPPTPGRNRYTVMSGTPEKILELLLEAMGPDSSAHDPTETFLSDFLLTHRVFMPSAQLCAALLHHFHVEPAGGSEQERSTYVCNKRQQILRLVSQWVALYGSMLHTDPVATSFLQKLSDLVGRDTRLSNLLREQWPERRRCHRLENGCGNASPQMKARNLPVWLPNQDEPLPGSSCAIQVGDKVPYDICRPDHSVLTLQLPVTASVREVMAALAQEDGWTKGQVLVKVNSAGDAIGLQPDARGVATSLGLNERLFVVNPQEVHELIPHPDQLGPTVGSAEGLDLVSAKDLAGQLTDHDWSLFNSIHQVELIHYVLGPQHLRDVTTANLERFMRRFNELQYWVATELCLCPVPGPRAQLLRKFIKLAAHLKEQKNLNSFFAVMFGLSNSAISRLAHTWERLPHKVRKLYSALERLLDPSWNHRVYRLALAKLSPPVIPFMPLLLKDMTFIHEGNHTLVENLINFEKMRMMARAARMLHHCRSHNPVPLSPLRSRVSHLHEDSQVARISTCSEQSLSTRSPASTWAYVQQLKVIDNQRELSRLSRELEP
test-summary: Counterscreen qHTS for antagonist of cAMP-regulated guanine nucleotide exchange factor 3 (EPAC1) (AID 1645888);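 note: fluorescence loss as bound BODIPY-GDP is released from Rap1B; % of control where 0% means no effect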
settings: Rap1B-BODIPY-GDP nucleotide exchange, fluorescence; series mostly up to 154 µM
Results filed as inconclusive are left out. Active and inactive are the calls of the source. Calls come from the whole dose curve; as a rule, active = well fitted inhibition curve with a large enough effect; inconclusive = small, poorly fitted or top-dose-only effect; inactive = no such curve, though single readings can be large or run the other way.
attribute-measured: activity change, negative = inhibition

# annotated cases, reported activity change, negative = inhibition shown
# compound, subject-of-test, activity change, negative = inhibition
measured = [
    ("Cc1nc2c(C(=O)NCc3ccc(F)cc3)c[nH]n2c(=O)c1Cl", "Rap guanine nucleotide exchange factor 3 (Homo sapiens) (UniProt O95398)", "inactive"),
    ("CCCN1C(=O)c2[nH]nc(-c3cccc(OC)c3)c2C1c1ccccn1 (stereo unspecified)", "Rap guanine nucleotide exchange factor 3 (Homo sapiens) (UniProt O95398)", "inactive"),
    ("OC(c1ccc2ccccc2n1)c1c(Cl)cccc1Cl (stereo unspecified)", "Rap guanine nucleotide exchange factor 3 (Homo sapiens) (UniProt O95398)", "inactive"),
    ("CCOC(=O)C1Nc2ccc(C(F)(F)F)cc2C2C=CCC12 (stereo unspecified)", "Rap guanine nucleotide exchange factor 3 (Homo sapiens) (UniProt O95398)", "-11.7% [at 30.8 µM] (inactive)"),
    ("Cc1nc(-[n+]2nc(-c3ccncc3)nn2-c2ccccc2)sc1C", "Rap guanine nucleotide exchange factor 3 (Homo sapiens) (UniProt O95398)", "-23.3% [at 30.8 µM] (inactive)"),
]

// switching to the query compound
[in] Enter activity change, negative = inhibition (test system Rap guanine nucleotide exchange factor 3 (Homo sapiens) (UniProt O95398)) for CC(=O)c1ccc(N2CCN(C(=O)/C=C/c3ccc4ccccc4n3)CC2)cc1
[out] inactive

====

subject-of-test: Rap guanine nucleotide exchange factor 3 (Homo sapiens)
test-summary: Counterscreen qHTS for agonist of cAMP-regulated guanine nucleotide exchange factor 3 (EPAC1) (AID 1645889); note: % of control where 0% means no effect; nearly all actives have a fitted effect of over 40% in size
settings: EPAC1 Rap1B-BODIPY-GDP exchange, fluorescence; series mostly up to 154 µM
Records with an inconclusive call do not appear. Activity calls are given as the source filed them. Calls come from the whole dose curve; as a rule, active = well fitted activation curve with a large enough effect; inconclusive = small, poorly fitted or top-dose-only effect, or another doubt; inactive = no such curve, though single readings can be large or run the other way.
attribute-measured: activation

Example cases with answers are listed next.
# compound, activation
data = [
    ("COc1ccc(CN(C(=O)c2cccs2)c2ccccc2)cc1", "12% [at 30.8 µM] (inactive)"),
    ("O=C(C1CC1)N1CCN(c2ccc([N+](=O)[O-])cc2-n2cccc2)CC1", "6.18% [at 30.8 µM] (inactive)"),
    ("CC(Oc1ccc(Cl)cc1Cl)C(=O)NC1=NN(c2ccccc2)C(=O)C1 (configuration not stated)", "inactive"),
    ("CCC(NC(=O)c1ccccc1NC(=O)c1ccco1)C(=O)NNC(=O)c1ccc(OC)cc1 (configuration not stated)", "9.27% [at 30.8 µM] (inactive)"),
    ("CC(C)(C)N(NC(=O)Nc1ccc(F)cc1)C(=O)c1ccccc1", "0.382% [at 30.8 µM] (inactive)"),
]

[in] Complete the entry with activation for Cc1cccc(C(=O)N=c2c(C#N)cc3c(=O)n4cccc(C)c4nc3n2Cc2ccco2)c1
[out] inactive

[in] Report measured activation; entry is CCc1noc(C)c1C(=O)N1CCCSC1=Nc1ccccc1Cl
[out] -1.65% [at 30.8 µM] (inactive)

[in] Indicate its recorded activation; the compound in question is CCCCC[C@H](C)N1C[C@@H](COCc2ccccc2)Oc2cc(N3CC[C@H](N(C)C)C3)ccc2S1(=O)=O
[out] inactive

[in] In one line, give reported activation of the entry Cc1nc2c(C(=O)NCc3ccccc3Cl)c[nH]n2c(=O)c1Cc1cccc(Cl)c1 .
[out] inactive

[in] Using the record for COc1c(S(=O)(=O)N2CCCC2)ccc(Cl)c1Cl , state its measured activation.
[out] 23.7% [at 30.8 µM] (inactive)

[in] Please report activation for the following compound: CCCC(=O)Oc1c(S(=O)(=O)c2ccc(C)cc2)c(C)nn1C(C)(C)C
[out] 5.13% [at 30.8 µM] (inactive)

[in] Hello, please tell me recorded activation for this one: CCCN(CCC)C(=O)Cn1c(=O)c2sccc2n2c(=S)sc(-c3ccccc3)c12
[out] -0.211% [at 30.8 µM] (inactive)

[in] Return value of activation for input CCc1ccc([C@@H]2CC=C(C(=O)O)[C@H](c3ccc(Cl)cc3)N2S(=O)(=O)c2ccc(C)cc2)cc1 , no commentary.
[out] 4.76% [at 30.8 µM] (inactive)
